# assayed.system: T1, Human IL12 (His Tag) (human, UniProt P29459 23-219; P29460 23-328)
# T1 construct: Bought His-tagged heterodimer
# T1 sequence (looked up) 1: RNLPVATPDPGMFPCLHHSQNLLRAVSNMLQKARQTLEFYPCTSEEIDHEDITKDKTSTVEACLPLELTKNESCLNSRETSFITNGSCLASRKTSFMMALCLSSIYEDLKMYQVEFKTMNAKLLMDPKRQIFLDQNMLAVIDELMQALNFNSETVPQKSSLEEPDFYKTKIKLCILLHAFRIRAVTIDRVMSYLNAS
# T1 sequence (looked up) 2: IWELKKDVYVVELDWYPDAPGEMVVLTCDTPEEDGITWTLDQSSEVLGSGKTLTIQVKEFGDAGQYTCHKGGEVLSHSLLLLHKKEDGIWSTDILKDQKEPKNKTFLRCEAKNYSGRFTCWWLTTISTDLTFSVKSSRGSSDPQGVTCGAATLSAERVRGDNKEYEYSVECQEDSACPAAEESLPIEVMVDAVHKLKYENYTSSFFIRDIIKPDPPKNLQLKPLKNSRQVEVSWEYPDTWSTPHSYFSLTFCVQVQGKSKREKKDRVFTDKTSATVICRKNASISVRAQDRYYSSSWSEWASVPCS
# test.protocol: FACS competition, IL-12-His 20 nM on 293T-IL-12Rβ1&IL-23R cells; antibody 0.04 µg/mL
Examples of binders with documented MFI follow.

binder	MFI, MFI
H5L9 (antibody, human IgG1, kappa, V domains shown, human IgG1 (P01857) / kappa (P01834) constant regions; also called humanized antibody H5L9) VH: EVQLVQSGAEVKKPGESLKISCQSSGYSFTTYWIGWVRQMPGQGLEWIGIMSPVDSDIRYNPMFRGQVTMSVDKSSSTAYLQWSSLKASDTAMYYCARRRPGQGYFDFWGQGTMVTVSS VL: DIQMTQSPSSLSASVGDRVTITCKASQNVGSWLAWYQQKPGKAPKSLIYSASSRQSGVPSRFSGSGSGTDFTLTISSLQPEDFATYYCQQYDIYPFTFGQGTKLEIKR	158
H5L12 (antibody, human IgG1, kappa, V domains shown, human IgG1 / kappa constant regions; also called humanized antibody H5L12) VH: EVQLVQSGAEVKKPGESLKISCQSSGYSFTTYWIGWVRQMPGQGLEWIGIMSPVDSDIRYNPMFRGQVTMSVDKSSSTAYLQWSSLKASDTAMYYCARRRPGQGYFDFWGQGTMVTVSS VL: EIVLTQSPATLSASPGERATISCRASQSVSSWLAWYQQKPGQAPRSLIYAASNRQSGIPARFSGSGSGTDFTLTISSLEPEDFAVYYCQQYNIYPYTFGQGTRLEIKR	149
H5L11 (antibody, human IgG1, kappa, V domains shown, human IgG1 / kappa constant regions; also called humanized antibody H5L11) VH: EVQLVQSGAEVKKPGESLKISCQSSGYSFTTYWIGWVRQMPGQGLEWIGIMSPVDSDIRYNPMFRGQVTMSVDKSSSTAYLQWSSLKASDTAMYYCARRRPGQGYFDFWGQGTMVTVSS VL: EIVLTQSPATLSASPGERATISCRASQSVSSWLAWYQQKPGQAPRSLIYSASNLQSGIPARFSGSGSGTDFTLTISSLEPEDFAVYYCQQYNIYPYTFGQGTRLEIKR	151
ustekinumab (antibody, V domains shown) VH: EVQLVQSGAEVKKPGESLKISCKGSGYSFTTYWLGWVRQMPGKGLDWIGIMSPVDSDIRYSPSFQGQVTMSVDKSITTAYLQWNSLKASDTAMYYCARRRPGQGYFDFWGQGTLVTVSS VL: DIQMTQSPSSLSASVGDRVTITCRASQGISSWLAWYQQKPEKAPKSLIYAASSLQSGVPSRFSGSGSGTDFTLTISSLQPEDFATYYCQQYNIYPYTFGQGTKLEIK	150
H5L10 (antibody, human IgG1, kappa, V domains shown, human IgG1 / kappa constant regions; also called humanized antibody H5L10) VH: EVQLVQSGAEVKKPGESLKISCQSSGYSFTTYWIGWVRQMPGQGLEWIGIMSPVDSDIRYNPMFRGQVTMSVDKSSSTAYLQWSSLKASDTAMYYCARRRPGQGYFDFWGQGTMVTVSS VL: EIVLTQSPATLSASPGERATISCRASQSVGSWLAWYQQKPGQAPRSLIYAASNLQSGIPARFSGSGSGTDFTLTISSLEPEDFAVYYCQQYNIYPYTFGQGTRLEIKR	154
H5L14 (antibody, human IgG1, kappa, V domains shown, human IgG1 / kappa constant regions; also called humanized antibody H5L14) VH: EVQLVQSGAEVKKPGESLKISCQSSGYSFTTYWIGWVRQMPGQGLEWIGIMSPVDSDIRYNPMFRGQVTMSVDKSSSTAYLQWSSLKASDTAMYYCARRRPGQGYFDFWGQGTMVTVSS VL: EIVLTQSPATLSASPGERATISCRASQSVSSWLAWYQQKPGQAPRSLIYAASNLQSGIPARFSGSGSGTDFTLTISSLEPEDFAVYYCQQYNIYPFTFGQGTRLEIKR	155
